- target: recombinant human KDM5B (Homo sapiens, UniProt Q9UGL1)
- Sequence (Q9UGL1 374-755 limits assumed): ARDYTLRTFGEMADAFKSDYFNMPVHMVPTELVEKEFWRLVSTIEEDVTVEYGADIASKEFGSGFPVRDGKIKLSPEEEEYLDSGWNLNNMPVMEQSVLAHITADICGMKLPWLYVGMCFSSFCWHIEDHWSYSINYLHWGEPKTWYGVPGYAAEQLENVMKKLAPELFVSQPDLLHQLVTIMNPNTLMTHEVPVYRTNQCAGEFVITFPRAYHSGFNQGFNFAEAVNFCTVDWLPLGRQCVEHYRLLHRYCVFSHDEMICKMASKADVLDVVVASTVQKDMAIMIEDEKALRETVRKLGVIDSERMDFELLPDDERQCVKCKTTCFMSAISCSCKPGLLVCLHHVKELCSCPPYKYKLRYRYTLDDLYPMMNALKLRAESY
- assay: 14CO2 capture enzymatic assay (decarboxylation of [1-14C] αKG), KDM5B
- test.context: 10 μM [1-14C] αKG, 90 μM non-labeled αKG, 50 μM peptide substrate, 37° C., 1 hour, final 1% DMSO
For each record, check the reported IC50: if it is below 300 nM write Criterion met, else write Criterion not met.

INSERT INTO measurements (structure_as_smiles, target, group) VALUES
  ('N#Cc1cc(-c2ccc3ccccc3c2)nc(C(=O)CCC(=O)O)c1O', 'recombinant human KDM5B (Homo sapiens, UniProt Q9UGL1)', 'Criterion met'),
  ('N#Cc1cc(-c2ccc(OC(F)(F)F)cc2)nc(C(=O)CCC(=O)O)c1O', 'recombinant human KDM5B (Homo sapiens, UniProt Q9UGL1)', 'Criterion met'),
  ('Cc1ccc(Cc2cc(C#N)c(O)c(C(=O)CCC(=O)O)n2)cc1', 'recombinant human KDM5B (Homo sapiens, UniProt Q9UGL1)', 'Criterion met'),
  ('Cc1ccccc1Oc1cc(C#N)c(O)c(C(=O)CCC(=O)O)c1', 'recombinant human KDM5B (Homo sapiens, UniProt Q9UGL1)', 'Criterion not met'),
  ('N#Cc1cc(-c2ccccc2)cc(C(=O)CCC(=O)O)c1O', 'recombinant human KDM5B (Homo sapiens, UniProt Q9UGL1)', 'Criterion not met'),
  ('N#Cc1cc(-c2ccc(C(F)(F)F)cc2Cl)nc(C(=O)CCC(=O)O)c1O', 'recombinant human KDM5B (Homo sapiens, UniProt Q9UGL1)', 'Criterion met'),
  ('Cc1ccc(Cl)c(-c2cc(C#N)c(O)c(C(=O)CCC(=O)O)n2)c1', 'recombinant human KDM5B (Homo sapiens, UniProt Q9UGL1)', 'Criterion not met'),
  ('Cc1cccc(Cl)c1Cc1cc(C#N)c(O)c(C(=O)CCC(=O)O)n1', 'recombinant human KDM5B (Homo sapiens, UniProt Q9UGL1)', 'Criterion met'),
  ('N#Cc1cc(-c2ccc(F)cc2Cl)nc(C(=O)CCC(=O)O)c1O', 'recombinant human KDM5B (Homo sapiens, UniProt Q9UGL1)', 'Criterion met'),
  ('Cc1cccc(C(F)(F)F)c1Cc1cc(C#N)c(O)c(C(=O)CCC(=O)O)n1', 'recombinant human KDM5B (Homo sapiens, UniProt Q9UGL1)', 'Criterion not met'),
  ('N#Cc1cc(-c2cccc(C(F)(F)F)c2Cl)nc(C(=O)CCC(=O)O)c1O', 'recombinant human KDM5B (Homo sapiens, UniProt Q9UGL1)', 'Criterion not met'),
  ('N#Cc1cc(Oc2ccc(Cl)cc2)cc(C(=O)CCC(=O)O)c1O', 'recombinant human KDM5B (Homo sapiens, UniProt Q9UGL1)', 'Criterion not met'),
  ('Cc1cccc(-c2cc(C#N)c(O)c(C(=O)CCC(=O)O)n2)c1', 'recombinant human KDM5B (Homo sapiens, UniProt Q9UGL1)', 'Criterion met'),
  ('COc1ccc(-c2cc(C#N)c(O)c(C(=O)CCC(=O)O)n2)cc1', 'recombinant human KDM5B (Homo sapiens, UniProt Q9UGL1)', 'Criterion met'),
  ('N#Cc1cc(Cc2cccc(C(F)(F)F)c2)nc(C(=O)CCC(=O)O)c1O', 'recombinant human KDM5B (Homo sapiens, UniProt Q9UGL1)', 'Criterion not met'),
  ('N#Cc1cc(Oc2ccccc2)nc(C(=O)CCC(=O)O)c1O', 'recombinant human KDM5B (Homo sapiens, UniProt Q9UGL1)', 'Criterion met'),
  ('Cc1cc(C(F)(F)F)ccc1-c1cc(C#N)c(O)c(C(=O)CCC(=O)O)n1', 'recombinant human KDM5B (Homo sapiens, UniProt Q9UGL1)', 'Criterion not met'),
  ('Cc1cccc(F)c1-c1cc(C#N)c(O)c(C(=O)CCC(=O)O)n1', 'recombinant human KDM5B (Homo sapiens, UniProt Q9UGL1)', 'Criterion not met'),
  ('N#Cc1cc(-c2ccc(Cl)c3ccccc23)nc(C(=O)CCC(=O)O)c1O', 'recombinant human KDM5B (Homo sapiens, UniProt Q9UGL1)', 'Criterion met'),
  ('Cc1ccc(F)cc1-c1cc(C#N)c(O)c(C(=O)CCC(=O)O)n1', 'recombinant human KDM5B (Homo sapiens, UniProt Q9UGL1)', 'Criterion not met'),
  ('Cc1ccc(C)c(-c2cc(C#N)c(O)c(C(=O)CCC(=O)O)n2)c1', 'recombinant human KDM5B (Homo sapiens, UniProt Q9UGL1)', 'Criterion met'),
  ('N#Cc1cc(-c2ccc(-c3ccccc3)c3ccccc23)nc(C(=O)CCC(=O)O)c1O', 'recombinant human KDM5B (Homo sapiens, UniProt Q9UGL1)', 'Criterion not met'),
  ('N#Cc1cc(Cc2ccc(Cl)cc2Cl)nc(C(=O)CCC(=O)O)c1O', 'recombinant human KDM5B (Homo sapiens, UniProt Q9UGL1)', 'Criterion met'),
  ('CCc1ccccc1-c1cc(C#N)c(O)c(C(=O)CCC(=O)O)n1', 'recombinant human KDM5B (Homo sapiens, UniProt Q9UGL1)', 'Criterion not met'),
  ('N#Cc1cc(Cc2ccc3ccccc3c2)nc(C(=O)CCC(=O)O)c1O', 'recombinant human KDM5B (Homo sapiens, UniProt Q9UGL1)', 'Criterion not met'),
  ('Cc1cc(C#N)c(O)c(C(=O)CCC(=O)O)n1', 'recombinant human KDM5B (Homo sapiens, UniProt Q9UGL1)', 'Criterion met'),
  ('COc1ccc(Cl)c(-c2cc(C#N)c(O)c(C(=O)CCC(=O)O)n2)c1', 'recombinant human KDM5B (Homo sapiens, UniProt Q9UGL1)', 'Criterion not met'),
  ('N#Cc1cc(Cc2ccccc2C(F)(F)F)nc(C(=O)CCC(=O)O)c1O', 'recombinant human KDM5B (Homo sapiens, UniProt Q9UGL1)', 'Criterion met'),
  ('Cc1cccc(-c2cc(C#N)c(O)c(C(=O)CCC(=O)O)n2)c1C', 'recombinant human KDM5B (Homo sapiens, UniProt Q9UGL1)', 'Criterion not met'),
  ('N#Cc1cc(-c2cc(F)ccc2Cl)nc(C(=O)CCC(=O)O)c1O', 'recombinant human KDM5B (Homo sapiens, UniProt Q9UGL1)', 'Criterion met'),
  ('N#Cc1cc(-c2ccc(F)c3ccccc23)nc(C(=O)CCC(=O)O)c1O', 'recombinant human KDM5B (Homo sapiens, UniProt Q9UGL1)', 'Criterion met'),
  ('N#Cc1cc(-c2ccc(Cl)cc2)cc(C(=O)CCC(=O)O)c1O', 'recombinant human KDM5B (Homo sapiens, UniProt Q9UGL1)', 'Criterion met'),
  ('N#Cc1cc(-c2ccccc2)nc(C(=O)CCC(=O)O)c1O', 'recombinant human KDM5B (Homo sapiens, UniProt Q9UGL1)', 'Criterion met'),
  ('Cc1ccccc1-c1cc(C#N)c(O)c(C(=O)CCC(=O)O)n1', 'recombinant human KDM5B (Homo sapiens, UniProt Q9UGL1)', 'Criterion not met'),
  ('N#Cc1cc(Cc2c(Cl)cc(F)cc2Cl)nc(C(=O)CCC(=O)O)c1O', 'recombinant human KDM5B (Homo sapiens, UniProt Q9UGL1)', 'Criterion met'),
  ('N#Cc1cc(-c2ccccn2)nc(C(=O)CCC(=O)O)c1O', 'recombinant human KDM5B (Homo sapiens, UniProt Q9UGL1)', 'Criterion not met');

---

A collection of molecules and their measured pIC50
- target: recombinant human KDM4A (Homo sapiens, UniProt O75164)
- Sequence (O75164 1-359 limits assumed): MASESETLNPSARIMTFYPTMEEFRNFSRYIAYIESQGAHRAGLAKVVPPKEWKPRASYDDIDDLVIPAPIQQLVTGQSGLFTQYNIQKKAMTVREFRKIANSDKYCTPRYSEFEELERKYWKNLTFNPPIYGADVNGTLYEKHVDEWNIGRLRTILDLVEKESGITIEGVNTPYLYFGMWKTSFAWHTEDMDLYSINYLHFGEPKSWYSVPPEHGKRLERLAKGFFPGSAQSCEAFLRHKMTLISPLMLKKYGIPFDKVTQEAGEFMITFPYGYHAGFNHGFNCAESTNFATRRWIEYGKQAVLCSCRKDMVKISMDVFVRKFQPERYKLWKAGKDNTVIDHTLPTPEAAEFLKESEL
- assay: 14CO2 capture enzymatic assay (decarboxylation of [1-14C] αKG), KDM4A
- test.context: 10 μM [1-14C] αKG, 90 μM non-labeled αKG, 50 μM peptide substrate, 37° C., 1 hour, final 1% DMSO
pIC50: −log10 of the molar value.
endpoint: pIC50

INSERT INTO measurements (structure_as_smiles, target, limit_operator, experimental_result) VALUES
  ('Cc1ccc(C)c(-c2cc(C#N)c(O)c(C(=O)CCC(=O)O)n2)c1', 'recombinant human KDM4A (Homo sapiens, UniProt O75164)', '<', 4.40),
  ('Cc1ccc(Oc2cc(C#N)c(O)c(C(=O)CCC(=O)O)c2)cc1', 'recombinant human KDM4A (Homo sapiens, UniProt O75164)', '<', 4.40),
  ('N#Cc1cc(-c2ccc(Cl)c3ccccc23)nc(C(=O)CCC(=O)O)c1O', 'recombinant human KDM4A (Homo sapiens, UniProt O75164)', '<', 4.40),
  ('COc1cccc(F)c1Cc1cc(C#N)c(O)c(C(=O)CCC(=O)O)n1', 'recombinant human KDM4A (Homo sapiens, UniProt O75164)', '=', 4.57),
  ('Cc1noc(C)c1Cc1cc(C#N)c(O)c(C(=O)CCC(=O)O)n1', 'recombinant human KDM4A (Homo sapiens, UniProt O75164)', '=', 5.85),
  ('N#Cc1cc(Cc2cccc(F)c2)nc(C(=O)CCC(=O)O)c1O', 'recombinant human KDM4A (Homo sapiens, UniProt O75164)', '=', 4.49),
  ('N#Cc1cc(Cc2ccccc2Cl)nc(C(=O)CCC(=O)O)c1O', 'recombinant human KDM4A (Homo sapiens, UniProt O75164)', '=', 4.54),
  ('Cc1cc(C)c(Cc2cc(C#N)c(O)c(C(=O)CCC(=O)O)n2)c(C)c1', 'recombinant human KDM4A (Homo sapiens, UniProt O75164)', '<', 4.40),
  ('Cn1cc(-c2cc(C#N)c(O)c(C(=O)CCC(=O)O)n2)cn1', 'recombinant human KDM4A (Homo sapiens, UniProt O75164)', '<', 4.40);
